# Assay summary: Similar oral pharmacokinetic study on dogs (solid capsule and solution formulations)
# Measurement conditions: dog, in vivo, 17 mg/kg
Value type: Tmax

{"Compound": "CC(C)CN(C[C@@H](O)[C@H](Cc1ccccc1)NC(=O)O[C@H]1CCOC1)S(=O)(=O)c1ccc(N)cc1 [VX-478]", "Observed": "1 h"}

====

# Assay summary: Similar oral pharmacokinetic study on dogs (solid capsule and solution formulations)
# Measurement conditions: dog, in vivo, 17 mg/kg

{"Molecule smiles": "CC(C)CN(C[C@@H](O)[C@H](Cc1ccccc1)NC(=O)O[C@H]1CCOC1)S(=O)(=O)c1ccc(N)cc1", "Value unit": "ng·h/mL", "AUC": 23500}

====

# Assay summary: Pharmacokinetics in Sprague-Dawley rats following single oral dose
# Measurement conditions: both, Sprague-Dawley, rat, in vivo, po, 41 mg/kg

{"Compound": "CC(C)CN(C[C@@H](O)[C@H](Cc1ccccc1)NC(=O)O[C@H]1CCOC1)S(=O)(=O)c1ccc(N)cc1 [VX-478]", "half-life (h)": 2.5}

====

# Assay summary: Similar oral pharmacokinetic study on dogs (solid capsule and solution formulations)
# Measurement conditions: dog, in vivo, 17 mg/kg
Value type: Cmax (ng/mL)

{"Compound": "CC(C)CN(C[C@@H](O)[C@H](Cc1ccccc1)NC(=O)O[C@H]1CCOC1)S(=O)(=O)c1ccc(N)cc1 [VX-478]", "Value type": "Cmax", "Observed": 6800}

====

# Assay summary: Pharmacokinetics in Sprague-Dawley rats following single oral dose
# Measurement conditions: both, Sprague-Dawley, rat, in vivo, po, 41 mg/kg

{"Compound": "CC(C)CN(C[C@@H](O)[C@H](Cc1ccccc1)NC(=O)O[C@H]1CCOC1)S(=O)(=O)c1ccc(N)cc1 [VX-478]", "Cmax [µM]": 14}

====

# Assay summary: Pharmacokinetics in Sprague-Dawley rats following single oral dose
# Measurement conditions: both, Sprague-Dawley, rat, in vivo, po, 50 mg/kg
Value type: half-life (h)

{"Molecule": "CC(C)CN(C[C@@H](O)[C@H](Cc1ccccc1)NC(=O)O[C@H]1CCOC1)S(=O)(=O)c1ccc(N)cc1 [VX-478]", "Value unit": "h", "Observed": 2.2}
